All values here come from patent US12077534B2.

Test system: MAT2A activity (SAM) in HCT116 cells with deleted MTAP gene
experiment_notes: Cellular assay of target engagement (SAM) by LC-MS/MS
Type: cell-based
protocol_conditions: Homo sapiens, HCT-116, 72 h, read-out: Cell 72 h SAM Inhibition (MTAP −/−)
pIC50: −log10 of the molar value.
metric: pIC50

[[record]]
compound = "Cn1cc2cc(-n3nc4c(COC5CCCCO5)cc(OCC(F)F)nc4c(-c4ccc(OC(F)F)cc4)c3=O)ccc2n1 (stereo not shown)"
target_or_system = "MAT2A activity (SAM) in HCT116 cells with deleted MTAP gene"
measured_result = "6.00 to 7.00"


====

target_or_system: MAT2A homodimer (Homo sapiens, UniProt P31153)
Construct: inferred from Ni sepharose purification and imidazole elution
Sequence (P31153 whole entry): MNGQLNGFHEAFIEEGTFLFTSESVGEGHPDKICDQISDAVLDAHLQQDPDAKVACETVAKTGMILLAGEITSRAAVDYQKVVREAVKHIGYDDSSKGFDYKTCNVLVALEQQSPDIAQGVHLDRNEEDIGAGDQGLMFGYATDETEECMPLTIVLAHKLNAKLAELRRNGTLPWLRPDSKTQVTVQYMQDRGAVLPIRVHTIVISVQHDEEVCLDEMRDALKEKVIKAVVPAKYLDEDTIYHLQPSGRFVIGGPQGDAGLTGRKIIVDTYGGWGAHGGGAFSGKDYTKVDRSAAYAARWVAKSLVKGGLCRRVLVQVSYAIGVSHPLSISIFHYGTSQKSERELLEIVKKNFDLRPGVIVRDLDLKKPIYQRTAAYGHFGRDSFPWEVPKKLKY
experiment_notes: MAT2A biochemical assay (phosphate release, PiColorLock Gold)
protocol_conditions: recombinant MAT2A homodimer, 60 min pre-incubation, 25° C.; read-out: Enzyme Inhibition
pIC50: −log10 of the molar value.
metric: pIC50

[[record]]
molecule = "Cn1cc2cc(-n3nc4ccc(OCC(F)F)nc4c(-c4ccc(OC(F)(F)F)cc4)c3=O)ccc2n1 [Example 109]"
measured_result = "> 7.00"

[[record]]
molecule = "Cn1cc2cc(-n3nc4ccc(OCC(F)F)nc4c(-c4ccc(C5CC5)nc4)c3=O)ccc2n1 [Example 107]"
measured_result = "> 7.00"

[[record]]
molecule = "Cn1cc2cc(-n3nc4ccc(OCC(F)F)nc4c(-c4ccn[nH]4)c3=O)ccc2n1 [Example 153]"
measured_result = "6.00 to 7.00"

[[record]]
molecule = "Cn1cc2cc(-n3nc4ccc(OCC(F)F)nc4c(-c4ccc(OC(F)(F)F)nc4)c3=O)ccc2n1 [Example 128]"
measured_result = "> 7.00"


====

# pIC50 per entry
target_or_system: MAT2A homodimer (Homo sapiens)
Construct: inferred from Ni sepharose purification and imidazole elution
experiment_notes: MAT2A biochemical assay (phosphate release, PiColorLock Gold)
protocol_conditions: recombinant MAT2A homodimer, 60 min pre-incubation, 25° C.; read-out: Enzyme Inhibition
pIC50: −log10 of the molar value.
metric: pIC50

[[record]]
given_smiles = "Cn1cc2cc(-n3nc4ccc(NCC(F)F)nc4c(-c4ccc(C(F)F)nc4)c3=O)ccc2n1"
metric = "pIC50"
measured_result = "> 7.00"

[[record]]
given_smiles = "Cn1cc2cc(-n3nc4ccc(N5CCC5)nc4c(-c4ccc(OC(F)F)cc4)c3=O)ccc2n1"
metric = "pIC50"
measured_result = "6.00 to 7.00"

[[record]]
given_smiles = "Cc1ccc(-c2c(=O)n(-c3ccc4nn(C)cc4c3)nc3ccc(NCC(F)F)nc23)cn1"
metric = "pIC50"
measured_result = "> 7.00"

[[record]]
given_smiles = "Cn1cc2cc(-n3nc4ccc(OCC(F)F)nc4c(-c4cccc(Cl)c4)c3=O)ccc2n1"
metric = "pIC50"
measured_result = "> 7.00"

